# target.of.assay: Human GLP-1 receptor (Homo sapiens, UniProt P43220)
# Construct: expressed in transfected cells
# Sequence (P43220 24-463): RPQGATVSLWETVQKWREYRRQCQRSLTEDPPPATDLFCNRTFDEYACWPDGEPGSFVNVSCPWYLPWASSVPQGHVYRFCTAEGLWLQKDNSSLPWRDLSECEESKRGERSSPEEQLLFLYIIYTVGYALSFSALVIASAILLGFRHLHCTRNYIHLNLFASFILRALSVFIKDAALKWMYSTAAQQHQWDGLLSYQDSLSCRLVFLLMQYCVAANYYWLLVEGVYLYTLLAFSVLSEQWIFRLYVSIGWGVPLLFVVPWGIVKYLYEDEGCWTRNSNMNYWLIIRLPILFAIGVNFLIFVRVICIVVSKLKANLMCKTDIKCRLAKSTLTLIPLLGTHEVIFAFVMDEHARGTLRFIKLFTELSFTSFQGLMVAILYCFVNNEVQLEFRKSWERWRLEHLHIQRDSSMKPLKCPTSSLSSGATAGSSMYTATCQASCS
# procedure.text: Measurement of GLP-1 receptor agonist activity (cAMP assay)
# Assay type: cell-based
# assay.conditions: cAMP increase in GLP-1 R/CHO-K1 cells; 2 nM human GLP-1 (7-36) = 100%, DMSO only = 0%
pEC50: −log10 of the molar value.
quantity.kind: pEC50

a = C[C@H]1c2nc(OCc3ccc(C#N)cc3F)c(C(F)(F)F)cc2CCN1Cc1nc2c(F)cc(C(=O)O)cc2n1C[C@@H]1CCO1
b = C[C@H]1c2nc(OCc3cc(F)c(Cl)cc3F)c(C(F)(F)F)cc2CCN1Cc1nc2ccc(C(=O)O)cc2n1C[C@@H]1CCO1
c = COc1ccc(COc2nc3c(cc2C(F)(F)F)CCN(Cc2nc4ccc(C(=O)O)cc4n2C[C@@H]2CCO2)C3)cc1
d = C[C@H]1c2nc(OCc3ccc(F)cc3F)c(C(F)(F)F)cc2CCN1Cc1nc2ccc(C(=O)O)cc2n1C[C@@H]1CCO1
Give the descending pEC50 ranking for the 4 compounds listed above. Please respond by ranking the labels in the order requested.
a, b, d, c
(a: 10.52, b: 10.13, d: 9.75, c: 8.35)

I = C[C@H]1c2nc(OCc3c(F)cc(Cl)cc3F)c(C(F)(F)F)cc2CCN1Cc1nc2ccc(C(=O)O)cc2n1C[C@@H]1CCO1
II = C[C@H]1c2cc(OCc3ccc(Cl)cn3)c(Cl)cc2CCN1Cc1nc2ccc(C(=O)O)cc2n1C[C@@H]1CCO1
Field: entry with larger pEC50 (options I / II ). To answer, give the label that identifies your chosen option.
I
(I: 9.98, II: 8.64)

I = C[C@H]1c2cc(OCc3c(F)cc(Cl)cc3F)c(Cl)cc2CCN1Cc1nc2ccc(C(=O)O)c(F)c2n1C[C@@H]1CCO1
II = COc1cc(C(=O)O)cc2c1nc(CN1CCc3cc(C(F)(F)F)c(OCc4c(F)cc(Cl)cc4F)nc3[C@@H]1C)n2C[C@@H]1CCO1
III = COc1cc(Cl)ccc1COc1nc2c(cc1C(F)(F)F)CCN(Cc1nc3c(OC)cc(C(=O)O)cc3n1C[C@@H]1CCO1)C2
IV = COc1cc(C(=O)O)cc2c1nc(CN1CCc3cc(C(F)(F)F)c(OCc4ccc(C5CC5)cc4)cc3[C@@H]1C)n2C[C@@H]1CCO1
V = O=C(O)c1cc(F)c2nc(CN3CCc4cc(C(F)(F)F)c(OCc5ccc(Cl)cc5Cl)nc4C3)n(C[C@@H]3CCO3)c2c1
Rank the items in ascending order with respect to pEC50. Please respond by ranking the labels in the order requested.
IV, I, V, III, II

1 = Cc1ccc(COc2nc3c(cc2C(F)(F)F)CCN(Cc2nc4ccc(C(=O)O)c(F)c4n2C[C@@H]2CCO2)C3)cc1
2 = C[C@H]1c2nc(OCc3ccc(Cl)cc3)c(C(F)(F)F)cc2CCN1Cc1nc2ccc(C(=O)O)cc2n1C[C@@H]1CCO1
3 = C[C@H]1c2nc(OCc3ccc(F)cc3F)c(C(F)(F)F)cc2CCN1Cc1nc2ccc(C(=O)O)c(F)c2n1C[C@@H]1CCO1
4 = COc1cc(Cl)ccc1COc1nc2c(cc1C(F)(F)F)CCN(Cc1nc3ccc(C(=O)O)nc3n1C[C@@H]1CCO1)C2
Rank the items in ascending order with respect to pEC50. Please respond by ranking the labels in the order requested.
1, 4, 2, 3
(1: 8.89, 4: 9.17, 2: 9.89, 3: 10.32)
